# tested target: GST-CIB1 : F-scrambled peptide (Homo sapiens, UniProt Q99828)
# Construct: made in house; host or cells: BL-21 plus RIL cells (E. coli)
# experimental details: FP scrambled-peptide counter screen, 1536-well format
# Assay type: binding
# experimental context: counterscreen, qHTS curve class; negative sign = inhibitory curve

molecule	Curve Class (counterscreen)
O=C(Cc1ccc(Cl)c(Cl)c1)Nc1ccc(S(=O)(=O)Nc2cnccn2)cc1.O=C(O)C(F)(F)F [NCGC00248365-02]	4
Cc1cnc(-c2ccccc2C(C)C)nc1NCc1ccc(-c2ccc(F)nc2)cc1.O=C(O)C(F)(F)F [NCGC00253893-01]	-2.1
CNc1ccc([N+](=O)[O-])c(Nc2ccc3[nH]ncc3c2)n1 [NCGC00387499-01]	-1.2
N#Cc1ccc(Nc2nc(-c3ccc(O)cc3O)cs2)cc1C(F)(F)F [NCGC00386816-01]	-2.2
CCN1CCN(c2ccc(Nc3ccc(-c4ccc(C(N)=O)cc4)n4ncnc34)cc2)CC1.O=C(O)C(F)(F)F [NCGC00249351-01]	-2.2
O=C(NC1=CC(=O)c2ccccc2C1=O)c1ccccc1.O=C(O)C(F)(F)F [NCGC00357425-01]	-1.1
CN(C)c1ccc(NC(=S)N/N=C2\C(=O)Nc3ccccc32)cc1.O=C(O)C(F)(F)F [NCGC00229526-01]	-1.2
O=C1C[C@@](c2ccc(N3CCOCC3)cc2)(c2ccsc2)NC(=O)C1Sc1ccccc1Cl (some centres unmarked) [NCGC00420796-01]	-1.4

====

Reported Efficacy (%) values for the following molecules.
# tested target: CIB1 and αIIb interaction (CIB1-GST : F-αIIb peptide) (Homo sapiens)
# Construct: made in house; host or cells: BL-21 plus RIL cells (E. coli)
# experimental details: FP assay, 1536-well qHTS format (primary and confirmatory screen)
# Format: binding
# experimental context: qHTS primary screen hits, Table S2; negative = inhibition

molecule	endpoint unit	Efficacy (%)
C[C@H](O)C(=O)C1=Nc2c(nc(N)[nH]c2=O)NC1	%	-40
Cc1cc(C)nc(NC(=S)N2CCN(c3cccc4ccncc34)CC2)c1.O=C(O)C(F)(F)F	%	-30
CCNC(=O)c1ccc(-c2ccc3ncnc(N4CCOCC4)c3c2)o1.O=C(O)C(F)(F)F	%	-23
CCCc1c(O)c(O)c(C(=O)O)c2cc(Cc3ccccc3)c(C)cc12	%	-48
O=C(Nc1nc(-c2ccccc2)cs1)c1ccncc1NS(=O)(=O)c1ccc(F)cc1Cl.O=C(O)C(F)(F)F	%	-42
CC1CCCC[C@H]2C(=O)C=C[C@H](O)[C@@H]2CC(=O)O1 (some centres unmarked)	%	-82
S=C(SSC(=S)N1CCCCC1)N1CCCCC1 [NCGC00181776-02, dipentamethylenethiuram disulfide]	%	-64
CCCCC1(C2CCCC2)Cc2cc(OCC(=O)O)c(Cl)c(Cl)c2C1=O (stereo in doubt)	%	-41

====

# tested target: GST-CIB1 : F-scrambled peptide (Homo sapiens, UniProt Q99828)
# Construct: made in house; host or cells: BL-21 plus RIL cells (E. coli)
# Sequence (Q99828 1-191): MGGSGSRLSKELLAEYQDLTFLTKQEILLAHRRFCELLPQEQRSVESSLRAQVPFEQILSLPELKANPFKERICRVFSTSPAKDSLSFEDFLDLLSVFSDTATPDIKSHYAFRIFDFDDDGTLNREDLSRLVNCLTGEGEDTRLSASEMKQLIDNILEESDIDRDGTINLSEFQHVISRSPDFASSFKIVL
# experimental details: FP scrambled-peptide counter screen, 1536-well format
# Assay type: binding
# experimental context: counterscreen
The entries below come with measured Efficacy (%) (counterscreen) values attached.

compound	Efficacy (%) (counterscreen)
O=C1Nc2cc(Cl)ccc2Nc2cscc21	-57
COc1ccc(S(=O)(=O)Nc2cnccc2C(=O)Nc2nc(-c3ccccc3)cs2)cc1.O=C(O)C(F)(F)F	-81
CC(C)c1ccccc1Cc1cc(C(=O)Nc2ccc(S(=O)(=O)c3ccccc3C(C)(C)C)cc2)c(O)c(O)c1O	-40
CC(=O)NC(Cc1c[nH]c2ccccc(=O)c12)C(=O)O (stereo not drawn)	-85
Nc1ccc(O)c([N+](=O)[O-])c1	-105
Cl.O=S(=O)(Nc1nccs1)c1ccc(NCc2cc(Cl)ccc2O)cc1	-36
Cl.O=[N+]([O-])c1ccc(CNc2ccc(S(=O)(=O)Nc3nccs3)cc2)c(O)c1	-48
COP(=S)(OC)SCN1C(=O)c2ccccc2C1=O	-33
Cc1cc(C)nc(NC(=S)N2CCN(c3ccc4nsnc4c3)CC2)c1.O=C(O)C(F)(F)F	-93
